test target: UniProtKB P29274
Sequence (P29274 whole entry): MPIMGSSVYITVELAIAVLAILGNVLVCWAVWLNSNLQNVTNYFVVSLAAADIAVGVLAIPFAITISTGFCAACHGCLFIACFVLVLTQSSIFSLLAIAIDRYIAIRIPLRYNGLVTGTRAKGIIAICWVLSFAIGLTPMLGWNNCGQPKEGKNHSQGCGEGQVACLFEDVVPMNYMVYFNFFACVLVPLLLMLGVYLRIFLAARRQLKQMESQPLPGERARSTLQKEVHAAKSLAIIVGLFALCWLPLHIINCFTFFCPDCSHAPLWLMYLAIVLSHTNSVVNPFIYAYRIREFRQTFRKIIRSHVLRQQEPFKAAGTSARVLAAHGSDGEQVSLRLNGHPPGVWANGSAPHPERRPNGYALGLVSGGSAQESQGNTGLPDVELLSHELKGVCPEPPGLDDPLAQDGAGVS
assay method text: functional cAMP (HTRF) assay, recombinant HEK293 cells expressing human A2A receptor, agonist NECA
Please go through the items and note down their IC50.

List reported IC50 for each of these compounds:
1. COc1ccc(-c2cnn(C)c2)c2nc(NC(=O)c3ccnc(Br)c3)[nH]c12
2. COc1ccc(C2CCOCC2)c2nc(NC(=O)N3CC[C@@]4(CCOC4)C3)[nH]c12
3. COc1ccc(-c2ccccc2)c2nc(NC(=O)c3ccc(C(=O)N(C)C)cc3)[nH]c12
4. COc1ccc(-c2cnn(C3CCN(C(=O)OC(C)(C)C)CC3)c2)c2[nH]c(NC(=O)N3CCC(C)(O)CC3)nc12

Marked response:
1: < 10 nM; 2: < 10 nM; 3: < 100 nM; 4: < 10 nM

---

Please go through the items and note down their pIC50.
test target: A2B receptors (Homo sapiens)
Sequence (P29275 whole entry): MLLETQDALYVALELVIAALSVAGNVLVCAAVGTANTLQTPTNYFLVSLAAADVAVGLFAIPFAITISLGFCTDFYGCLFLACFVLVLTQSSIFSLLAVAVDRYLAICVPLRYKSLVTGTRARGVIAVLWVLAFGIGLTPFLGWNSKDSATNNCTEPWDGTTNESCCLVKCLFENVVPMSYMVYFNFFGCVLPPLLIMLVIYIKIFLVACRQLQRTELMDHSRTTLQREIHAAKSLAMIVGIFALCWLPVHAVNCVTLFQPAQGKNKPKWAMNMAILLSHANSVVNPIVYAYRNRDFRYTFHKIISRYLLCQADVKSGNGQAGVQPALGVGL
assay method text: functional cAMP (HTRF) assay, recombinant HEK293 cells expressing human A2B receptor, agonist NECA
pIC50: −log10 of the molar value.

In [3]: df
Out[3]:
                                   compound                   test_target   value
0  COc1ccc(-c2cccc(F)c2)c2nc(NC(=O)c3ccc(C(=O)N(C)C)cc3)[nH]c12 [compound 240]  A2B receptors (Homo sapiens)  > 8.00
1  COc1ccc(-c2cnn(C)c2)c2nc(NC(=O)c3cnc(C)o3)[nH]c12 [compound 215]  A2B receptors (Homo sapiens)  > 7.00
2  COc1ccc(C2CCOCC2)c2nc(NC(=O)c3ccc(N4C(=O)CCC4=O)cc3)[nH]c12 [compound 250]  A2B receptors (Homo sapiens)  > 7.00
3  COc1ccc(C2CCOCC2)c2nc(NC(=O)N3CC[C@@]4(CCOC4)C3)[nH]c12 [compound 150]  A2B receptors (Homo sapiens)  < 6.00
4  COc1ccc(-c2cnn(C)c2)c2nc(NC(=O)c3ccc(C(=O)N(C)C)nc3)[nH]c12 [compound 162]  A2B receptors (Homo sapiens)  > 6.00
5  COc1ccc(C2CCOCC2)c2nc(NC(=O)c3ccc(CN4CCCC4=O)cc3)[nH]c12 [compound 138]  A2B receptors (Homo sapiens)  > 6.00
6  COc1ccc(-c2ccccc2)c2nc(NC(=O)c3ccc(C(=O)N(C)C)cn3)[nH]c12 [compound 284]  A2B receptors (Homo sapiens)  > 7.00
7  COc1ccc(-c2ccccc2)c2nc(NC(=O)c3ccc(Br)nc3)[nH]c12 [compound 5]  A2B receptors (Homo sapiens)  > 7.00

List reported pIC50 for each of these compounds:
1. COc1ccc(-c2cnn(C)c2)c2nc(NC(=O)c3ccnc(N4CC[C@](C)(O)C4)c3)[nH]c12 [compound 104]
2. COc1ccc(-c2cnn(C)c2)c2nc(NC(=O)c3ccc(C(=O)N(C)C)cc3)[nH]c12 [compound 93]
3. COc1ccc(-c2ccccc2)c2nc(NC(=O)c3cn(C)nc3C)[nH]c12 [compound 269]
4. COc1cc(F)c(C2CCOCC2)c2nc(NC(=O)c3ccc(C(=O)N(C)C)cc3)[nH]c12 [compound 277]
5. COc1ccc(C2CCOCC2)c2nc(NC(=O)c3ccc(C(=O)N(C)C)cc3)[nH]c12 [compound 133]
6. COc1ccc(-c2cccnc2)c2[nH]c(NC(=O)c3c[nH]cn3)nc12 [compound 268]
7. COc1ccc(-c2ccccc2)c2nc(NC(=O)c3ccc(F)cc3)[nH]c12 [compound 2]
8. COc1ccc(C2CCOCC2)c2nc(NC(=O)c3ccc(Cn4ccnc4)cc3)[nH]c12 [compound 97]

Marked response:
["< 6.00", "> 7.00", "> 7.00", "> 7.00", "> 6.00", "> 7.00", "> 7.00", "> 7.00"]
